molecular target: porcine succinate-cytochrome c reductase (SCR, the mixture of complex II and bc1) (Sus scrofa); construct: T h e S C R f r o m p o r c i n e h e a r t; from tissue; host or cells: porcine heart; assay: SCR activity, succinate-cytochrome c system (Assay 1); format: biochemical
Items are presented alongside their recorded pKi.
pKi field: float, defined as -log10 of concentration (mol/L).

Example results:
CO/N=C(/C(=O)OC)c1ccccc1CSc1nc2ccc(Br)cc2s1	8.46
CO/C=C(/C(=O)OC)c1ccccc1CSc1nc2cc([N+](=O)[O-])ccc2s1	9.41

Now examine the next entry.
Prompt: Need pKi, item CO/C=C(/C(=O)OC)c1ccccc1CSc1nc2ccccc2s1
Response: 7.51

---

Here the recorded ΔΔGexp is given for each entry.
molecular target: porcine succinate-cytochrome c reductase (SCR, the mixture of complex II and bc1) (Sus scrofa, UniProt P24964); construct: T h e S C R f r o m p o r c i n e h e a r t; from tissue; host or cells: porcine heart; experiment: SCR activity, succinate-cytochrome c system (Assay 1); assay type: biochemical; settings: experimental binding free energy change relative to compound 1
Sequence (P24964 whole entry, one chain of several): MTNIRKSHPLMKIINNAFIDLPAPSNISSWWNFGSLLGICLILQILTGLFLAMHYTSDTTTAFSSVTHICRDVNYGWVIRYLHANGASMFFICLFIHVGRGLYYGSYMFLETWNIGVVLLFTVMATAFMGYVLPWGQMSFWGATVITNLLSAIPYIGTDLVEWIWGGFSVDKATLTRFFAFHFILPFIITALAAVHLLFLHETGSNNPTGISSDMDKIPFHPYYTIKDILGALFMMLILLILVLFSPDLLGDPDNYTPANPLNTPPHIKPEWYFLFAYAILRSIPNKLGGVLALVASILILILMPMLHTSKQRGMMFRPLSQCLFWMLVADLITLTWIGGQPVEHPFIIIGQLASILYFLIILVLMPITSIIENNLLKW
Give just the number in kcal/mol; leave the unit off.

Example entries and their recorded answers appear below.
CO/N=C(/C(=O)OC)c1ccccc1CSc1nc2cc([N+](=O)[O-])ccc2s1 [Compound 55]	-2.00
CO/C=C(/C(=O)OC)c1ccccc1CSc1nc2ccc(Br)cc2s1 [Compound 24]	-1.96

# input for lookup
Prompt: Which ΔΔGexp value belongs to CO/C=C(/C(=O)OC)c1ccccc1CSc1nc2ccc(C)cc2s1 [Compound 26] ?
Response: -1.96
